target: HLA-DRB1*0701 (human); experiment: competition binding
PROPERTY_LABEL: IC50
Give the figure together with its unit, number first.

input: Please look up its IC50: TQFVRFDSDAASQRM [peptide p7 (residues 31-45 of HLA-A2)]
output: 786 nM
